target: GH5 (Caldicellulosiruptor saccharolyticus, UniProt A4XIF7)
Sequence (A4XIF7 entry or part of it): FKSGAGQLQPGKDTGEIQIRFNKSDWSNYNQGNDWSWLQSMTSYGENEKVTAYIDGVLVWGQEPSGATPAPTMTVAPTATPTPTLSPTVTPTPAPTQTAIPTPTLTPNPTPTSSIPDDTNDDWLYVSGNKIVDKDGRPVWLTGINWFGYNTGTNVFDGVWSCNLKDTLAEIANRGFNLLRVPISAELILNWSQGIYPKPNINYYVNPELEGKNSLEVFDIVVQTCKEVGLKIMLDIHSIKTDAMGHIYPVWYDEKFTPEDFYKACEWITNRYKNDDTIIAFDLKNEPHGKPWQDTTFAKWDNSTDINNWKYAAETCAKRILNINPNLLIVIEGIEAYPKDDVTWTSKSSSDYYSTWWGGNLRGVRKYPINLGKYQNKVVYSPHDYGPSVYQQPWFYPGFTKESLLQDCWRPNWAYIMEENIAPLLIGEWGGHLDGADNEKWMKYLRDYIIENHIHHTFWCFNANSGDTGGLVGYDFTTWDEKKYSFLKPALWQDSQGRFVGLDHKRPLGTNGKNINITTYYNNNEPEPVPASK
Measure: IC50

Value of measured IC50 for the entry O=C[C@H](O)[C@@H](O)[C@H](O[C@@H]1O[C@H](CO)[C@@H](O)[C@H](O)[C@H]1O)[C@H](O)CO [cellobiose] : ~30 mM
